target: T1, FZD7 CRD (Homo sapiens, UniProt O75084); experiment: Immunofluorescence of anti-FZD5 Fab binding to CHO cells overexpressing Frizzled CRD; set-up: key: −: no binding; +: very weak binder; ++: weak binder; +++: good binder; ++++: very good binder
T1 construct: D45-S169; GPI anchor signal (C); expressed in transfected cells; host or cells: CHO cells, lentiviral pLenti-puro
parameter.measured: Immunofluorescence binding, Frizzled CRD overexpressed on CHO cells: FZD7

>  <molecule>
Fab-2913: anti-FZD5 Fab with antibody variable region Fv-2913; CDR SEQ ID NOs: 35, 36, 52, 91, 128, 165 (antibody, V domains shown) VH: EVQLVESGGGLVQPGGSLRLSCAASGFNISYSSIHWVRQAPGKGLEWVASIYPYSSSTSYADSVKGRFTISADTSKNTAYLQMNSLRAEDTAVYYCARYGYYGLDYWGQGTLVTVSS VL: DIQMTQSPSSLSASVGDRVTITCRASQSVSSAVAWYQQKPGKAPKLLIYSASSLYSGVPSRFSGSRSGTDFTLTISSLQPEDFATYYCQQWGVSHYLFTFGQGTKVEIK

>  <measured.value>
++++

$$$$
>  <molecule>
Fab-2906: anti-FZD5 Fab with antibody variable region Fv-2906; CDR SEQ ID NOs: 35, 36, 45, 84, 121, 158 (antibody, V domains shown) VH: EVQLVESGGGLVQPGGSLRLSCAASGFNFSSSSIHWVRQAPGKGLEWVAYISSSYGYTYYADSVKGRFTISADTSKNTAYLQMNSLRAEDTAVYYCARTVRGSKKPYFSGWAMDYWGQGTLVTVSS VL: DIQMTQSPSSLSASVGDRVTITCRASQSVSSAVAWYQQKPGKAPKLLIYSASSLYSGVPSRFSGSRSGTDFTLTISSLQPEDFATYYCQQWSWGFLITFGQGTKVEIK

>  <measured.value>
+

$$$$
